These entries and their values trace back to patent US7998965B2.

tested system: purified recombinant human Aggrecanase-2 (Ag2t-Phe628-Strep) (Homo sapiens, UniProt Q9UNA0)
Construct: the form used is denoted as Ag2t-Phe628-Strep (MW=41,737)
Sequence (Q9UNA0 262-628): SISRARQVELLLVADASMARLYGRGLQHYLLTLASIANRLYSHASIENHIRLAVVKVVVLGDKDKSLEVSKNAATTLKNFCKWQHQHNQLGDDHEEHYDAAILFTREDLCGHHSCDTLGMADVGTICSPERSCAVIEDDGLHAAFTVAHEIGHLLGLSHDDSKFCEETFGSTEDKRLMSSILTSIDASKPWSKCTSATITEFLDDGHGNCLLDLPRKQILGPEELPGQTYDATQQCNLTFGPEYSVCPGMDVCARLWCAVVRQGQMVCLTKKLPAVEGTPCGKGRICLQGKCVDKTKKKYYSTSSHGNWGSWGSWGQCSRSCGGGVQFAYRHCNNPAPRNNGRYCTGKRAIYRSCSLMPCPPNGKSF
experiment description: In vitro fluorescence screen for Aggrecanase-2 inhibitors
Type: biochemical
run parameters: Table 1; read-out: Agg 2 IC50
The entries below are paired with their reported IC50.
Number in nM, nothing else.

Look over these answered cases.
- molecule: "CSc1ccc(CNC(=O)[C@H](CCC(=O)O)NC(=O)c2ccc(-c3ccccc3)cc2)cc1 [Example 8V]"
  reported property: "IC50"
  endpoint result: 1100
- molecule: "O=C(O)CC[C@H](NC(=O)c1ccc(-c2ccccc2)cc1)C(=O)NCc1cccc(-c2cccs2)c1 [Example 10N]"
  reported property: "IC50"
  endpoint result: 970
- molecule: "CC(C)(Cc1ccc(F)cc1)NC(=O)C(CCC(=O)O)NC(=O)c1ccc(-c2ccccc2)cc1 (racemic) [Example 8GGGG]"
  reported property: "IC50"
  endpoint result: 160
- molecule: "O=C(O)CC[C@H](NC(=O)c1ccc(-c2ccccc2)cc1)C(=O)NCc1ccc(Oc2ccccc2)cc1 [Example 8W]"
  reported property: "IC50"
  endpoint result: 971

Lookup: Reported IC50 for COc1ccc(CCNC(=O)[C@H](CCC(=O)O)NC(=O)c2ccc(-c3ccccc3)cc2)cc1 [Example 8M] : what is it?
Found: 856

Lookup: Please answer likewise for COc1cccc(CNC(=O)[C@H](CCC(=O)O)NC(=O)c2ccc(-c3ccccc3)cc2)c1 [Example 8Q]
Found: 400

Lookup: Can you handle O=C(O)CC[C@H](NC(=O)c1ccc(-c2ccccc2)cc1)C(=O)NCc1ccc(Cl)c(Cl)c1 [Example 8BB] next?
Found: 650

----------
Catalogue of pIC50 readings, one per entry.
tested system: recombinant human catalytic domain of MMP-14 (Homo sapiens, UniProt P50281)
Construct: 177 amino acids corresponding to Tyr89-Gly265 of mature human enzyme
experiment description: In vitro fluorescence assay of MMP-14 activity
run parameters: Table 1; unit inferred
pIC50: −log10 of the molar value.

Answered cases to consult:
- molecule: "O=C(O)CC[C@H](NC(=O)c1ccc(-c2ccccc2)cc1)C(=O)NCc1ccc(Oc2ccccc2)cc1"
  tested system: "recombinant human catalytic domain of MMP-14 (Homo sapiens, UniProt P50281)"
  pIC50: "~4.60"
- molecule: "COc1ccc(CCNC(=O)[C@H](CCC(=O)O)NC(=O)c2ccc(-c3ccccc3)cc2)cc1OC"
  tested system: "recombinant human catalytic domain of MMP-14 (Homo sapiens, UniProt P50281)"
  pIC50: 4.67
- molecule: "COc1cccc(CNC(=O)[C@H](CCC(=O)O)NC(=O)c2ccc(-c3ccccc3)cc2)c1"
  tested system: "recombinant human catalytic domain of MMP-14 (Homo sapiens, UniProt P50281)"
  pIC50: "~4.66"
- molecule: "COc1cc(CNC(=O)[C@H](CCC(=O)O)NC(=O)c2ccc(-c3ccccc3)cc2)cc(OC)c1"
  tested system: "recombinant human catalytic domain of MMP-14 (Homo sapiens, UniProt P50281)"
  pIC50: "~4.60"
- molecule: "O=C(O)CC[C@H](NC(=O)c1ccc(-c2ccccc2)cc1)C(=O)NC1CCCCC1"
  tested system: "recombinant human catalytic domain of MMP-14 (Homo sapiens, UniProt P50281)"
  pIC50: "~4.60"
- molecule: "O=C(O)CC[C@H](NC(=O)c1ccc(-c2ccccc2)cc1)C(=O)NC1CCCC1"
  tested system: "recombinant human catalytic domain of MMP-14 (Homo sapiens, UniProt P50281)"
  pIC50: "~4.60"
- molecule: "O=C(O)CC[C@H](NC(=O)c1ccc(-c2ccccc2)cc1)C(=O)NCCc1cccs1"
  tested system: "recombinant human catalytic domain of MMP-14 (Homo sapiens, UniProt P50281)"
  pIC50: "< 4.18"
- molecule: "CC(C)(Cc1ccc(F)cc1)NC(=O)[C@H](CCC(=O)O)NC(=O)c1ccc(-c2ccccc2)cc1"
  tested system: "recombinant human catalytic domain of MMP-14 (Homo sapiens, UniProt P50281)"
  pIC50: "< 3.70"

Lookup: # get_value(readout='pIC50', item= CC(C)(C)CNC(=O)[C@H](CCC(=O)O)NC(=O)c1ccc(-c2ccccc2)cc1 )
Found: < 3.70

Lookup: Now consider O=C(O)CC[C@H](NC(=O)c1ccc(-c2ccccc2)cc1)C(=O)NCc1ccc2c(c1)OCO2 and answer again.
Found: ~4.89

Lookup: Lookup O=C(O)CC[C@H](NC(=O)c1ccc(-c2ccccc2)cc1)C(=O)NCCCCCCO
Found: < 3.70

Lookup: Note, next up: O=C(O)CC[C@H](NC(=O)c1ccc(-c2ccccc2)cc1)C(=O)NCc1ccc(F)cc1
Found: 4.77

----------
tested system: purified recombinant human Aggrecanase-1 (rAgg1) (Homo sapiens)
experiment description: In vitro fluorescence screen for Aggrecanase-1 inhibitors
Type: biochemical
run parameters: Table 3; read-out: Agg1 IC50
reported property: IC50

- compound: "CC(C)(Cc1ccc(Cl)cc1)NC(=O)[C@H](CCC(=O)O)NC(=O)c1ccc(-c2c(F)cccc2F)cc1 [Example 8CCCCCCC]"
  IC50: "0.05 µM"
- compound: "CC(C)(Cc1ccc(Cl)cc1)NC(=O)[C@H](CCC(=O)O)NC(=O)c1ccc(-c2nccs2)cc1"
  IC50: "1.2 µM"
- compound: "CC(=O)c1ccc(-c2ccc(C(=O)N[C@@H](CCC(=O)O)C(=O)NC(C)(C)Cc3ccccc3)cc2)s1"
  IC50: "0.3 to 0.9 µM"

Lookup: Reported IC50, compound CC(C)(Cc1ccccc1)NC(=O)[C@H](CCC(=O)O)NC(=O)c1ccc(-c2cccc(F)c2)cc1 : ____
Found: < 0.03 µM

----------
tested system: purified recombinant human Aggrecanase-1 (rAgg1) (Homo sapiens)
experiment description: In vitro fluorescence screen for Aggrecanase-1 inhibitors
Format: biochemical
run parameters: Table 3; read-out: Agg1 IC50
reported property: pIC50
Answer as the number alone; pIC50 is minus log10 of concentration in mol/L.

# example entries with known answers
- chemical structure: "COc1cc(CNC(=O)[C@H](CCC(=O)O)NC(=O)c2ccc(-c3ccc(CBr)cc3)cc2)cc(OC)c1OC"
  reported property: "pIC50"
  endpoint result: 6.70
- chemical structure: "COc1cccc(-c2ccc(C(=O)N[C@@H](CCC(=O)O)C(=O)NC(C)(C)Cc3ccc(F)cc3)cn2)c1"
  reported property: "pIC50"
  endpoint result: 6.85
- chemical structure: "Cc1cccc(CNC(=O)[C@H](CCC(=O)O)NC(=O)c2ccc(-c3cccc(CBr)c3)cc2)c1"
  reported property: "pIC50"
  endpoint result: 6.15

Lookup: For the molecule shown here, CC(C)(Cc1ccc(Cl)cc1)NC(=O)[C@H](CCC(=O)O)NC(=O)c1ccc(-c2ccc(F)c(Cl)c2)s1 , give the reported pIC50.
Found: 7.22

----------
tested system: purified recombinant human Aggrecanase-1 (rAgg1) (Homo sapiens, UniProt O75173)
Sequence (O75173 213-837): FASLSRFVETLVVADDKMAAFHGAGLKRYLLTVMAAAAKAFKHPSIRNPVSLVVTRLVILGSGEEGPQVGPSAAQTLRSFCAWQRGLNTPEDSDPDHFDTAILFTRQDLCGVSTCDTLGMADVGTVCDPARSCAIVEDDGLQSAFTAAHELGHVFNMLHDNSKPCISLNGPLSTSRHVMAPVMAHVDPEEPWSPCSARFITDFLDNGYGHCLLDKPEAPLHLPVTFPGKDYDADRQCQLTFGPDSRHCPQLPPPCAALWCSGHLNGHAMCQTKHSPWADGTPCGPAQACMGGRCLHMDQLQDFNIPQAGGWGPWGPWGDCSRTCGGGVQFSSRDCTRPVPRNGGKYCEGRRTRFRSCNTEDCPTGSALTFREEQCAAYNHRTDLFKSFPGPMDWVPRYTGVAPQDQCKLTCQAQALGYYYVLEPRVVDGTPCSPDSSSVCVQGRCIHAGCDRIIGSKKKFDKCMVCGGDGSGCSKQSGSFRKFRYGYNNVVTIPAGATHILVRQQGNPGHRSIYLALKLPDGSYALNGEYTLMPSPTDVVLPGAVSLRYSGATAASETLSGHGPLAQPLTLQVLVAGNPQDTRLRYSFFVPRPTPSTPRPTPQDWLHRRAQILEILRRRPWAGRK
experiment description: In vitro fluorescence screen for Aggrecanase-1 inhibitors
Format: biochemical
run parameters: Table 2; read-out: Agg1 IC50
Rule: measured IC50 below 900 nM gets true (1); anything equal to or greater than 900 nM gets false (0).

Solved cases below.
- compound: "O=C(O)CC[C@H](NC(=O)c1ccc(-c2cccc(CO)c2)cc1)C(=O)NCc1ccccc1 [Example 17JJ]"
  assigned label: "false (0)"
- compound: "COc1cc(CNC(=O)[C@H](CCC(=O)O)NC(=O)C2c3ccccc3-c3ccccc32)cc(OC)c1OC"
  assigned label: "false (0)"

Lookup: API: query returns whether the compound falls strictly under 900 nM in IC50. Query: COc1cc(COc2ccc(-c3ccc(C(=O)N[C@@H](CCC(=O)O)C(=O)NCCCCCCO)cc3)cc2)cc(OC)c1 [Example 19G]
Found: true (1)

Lookup: Likewise for CC(C)(Cc1ccccc1)NC(=O)[C@H](CCC(=O)O)NC(=O)c1ccc(-c2ccc(-c3ccccc3)cc2)cc1 [Example 17U] ?
Found: false (0)

Lookup: Try CC(C)(NC(=O)[C@H](CCC(=O)O)NC(=O)c1cccc(Oc2ccccc2)c1)c1ccccc1 next.
Found: false (0)

Lookup: Would you mind doing COc1cc(CNC(=O)[C@H](CCC(=O)O)NC(=O)c2ccc(-c3cccc(C(=O)O)c3)cc2)cc(OC)c1OC [Example 17D] as well?
Found: false (0)

Lookup: Same question for COc1ccc(CCN(C)C(=O)[C@H](CCC(=O)O)NC(=O)c2ccc3c(c2)Cc2ccccc2-3)cc1OC please.
Found: false (0)

Lookup: Next compound up: COc1cc(CNC(=O)[C@H](CCC(=O)O)NC(=O)c2cccc3c2-c2ccccc2C3)cc(OC)c1OC
Found: false (0)

Lookup: Next compound up: O=C(O)CC[C@H](NC(=O)c1ccc2c(c1)Cc1ccccc1-2)C(=O)NCc1ccccc1
Found: true (1)

Lookup: Can you check Cc1ccc(-c2ccc(C(=O)N[C@@H](CCC(=O)O)C(=O)NC(C)(C)Cc3ccccc3)cc2)cc1F [Example 17L] next?
Found: true (1)

Lookup: Same read-out for CN(CCc1ccccc1)C(=O)[C@H](CCC(=O)O)NC(=O)c1ccc(-c2ccccc2)cc1 ?
Found: false (0)

Lookup: Can you check CC(C)(Cc1ccccc1)NC(=O)[C@H](CCC(=O)O)NC(=O)c1ccc(-c2ccc3c(c2)OCO3)cc1 [Example 17P] next?
Found: true (1)

Lookup: Now consider O=C(O)CC[C@H](NC(=O)c1ccc2c(c1)C(=O)c1ccccc1-2)C(=O)NC12CC3CC(CC(C3)C1)C2 and answer again.
Found: false (0)
